target: UniProt:P32745; assay: In vitro inhibition of radioligand binding to human somatostatin receptor (hsst3) expressed in CHO cells.; type: cell-based; settings: cho
pKd: −log10 of the molar value.
Measurement Kind: pKd

Smiles Entry: C[C@H](c1ccccc1)N1CC(=O)N[C@@H](Cc2ccccc2)C(=O)N[C@H](Cc2c[nH]c3ccccc23)C(=O)N[C@@H](CCCCN)C(=O)N[C@@H]([C@@H](C)O)C(=O)N[C@@H](Cc2ccccc2)C1=O
Measurement Kind: pKd
Value: 6.39

Smiles Entry: C[C@@H](O)[C@@H]1NC(=O)[C@H](CCCCN)NC(=O)[C@@H](Cc2c[nH]c3ccccc23)NC(=O)[C@H](Cc2ccccc2)NC(=O)CN(Cc2ccccc2)C(=O)[C@H](Cc2ccccc2)NC1=O
Measurement Kind: pKd
Value: 6.55

Smiles Entry: C[C@@H](O)[C@@H]1NC(=O)[C@H](CCCCN)NC(=O)[C@@H](Cc2c[nH]c3ccccc23)NC(=O)[C@H](Cc2ccccc2)NC(=O)CN([C@@H](C)c2ccccc2)C(=O)[C@H](Cc2ccccc2)NC1=O
Measurement Kind: pKd
Value: 6.47

====

Measured Kd of individual entries
target: Somatostatin receptor type 5 (Homo sapiens, UniProt P35346); test: In vitro inhibition of radioligand binding to human Somatostatin receptor type 5 expressed in CCL-39 cells.; type: cell-based; conditions: ccl-39
Sequence (P35346 whole entry): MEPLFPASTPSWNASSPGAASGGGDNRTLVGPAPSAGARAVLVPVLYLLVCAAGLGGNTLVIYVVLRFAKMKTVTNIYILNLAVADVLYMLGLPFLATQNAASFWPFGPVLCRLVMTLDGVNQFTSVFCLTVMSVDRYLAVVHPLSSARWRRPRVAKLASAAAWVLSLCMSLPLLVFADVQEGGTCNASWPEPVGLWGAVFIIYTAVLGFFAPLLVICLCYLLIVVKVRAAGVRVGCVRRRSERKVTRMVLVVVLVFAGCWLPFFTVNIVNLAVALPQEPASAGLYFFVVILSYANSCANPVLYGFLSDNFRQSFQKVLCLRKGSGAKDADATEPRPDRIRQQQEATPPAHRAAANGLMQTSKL
Measurement Kind: Kd (nM)

Smiles Entry: C[C@@H](O)[C@@H]1NC(=O)[C@H](CCCCN)NC(=O)[C@@H](Cc2c[nH]c3ccccc23)NC(=O)[C@H](Cc2ccccc2)NC(=O)CN([C@@H](C)c2ccccc2)C(=O)[C@H](Cc2ccccc2)NC1=O
Measurement Kind: Kd
Unit String: nM
Value: 115
//
Smiles Entry: C[C@H](c1ccccc1)N1CC(=O)N[C@@H](Cc2ccccc2)C(=O)N[C@H](Cc2c[nH]c3ccccc23)C(=O)N[C@@H](CCCCN)C(=O)N[C@@H]([C@@H](C)O)C(=O)N[C@@H](Cc2ccccc2)C1=O
Measurement Kind: Kd
Unit String: nM
Value: 288
//
Smiles Entry: C[C@@H](O)[C@@H]1NC(=O)[C@H](CCCCN)NC(=O)[C@@H](Cc2c[nH]c3ccccc23)NC(=O)[C@H](Cc2ccccc2)NC(=O)CN(Cc2ccccc2)C(=O)[C@H](Cc2ccccc2)NC1=O
Measurement Kind: Kd
Unit String: nM
Value: 69

====

biological target: Somatostatin receptor type 3 (Homo sapiens, UniProt P32745); experiment: In vitro inhibition of radioligand binding to human somatostatin receptor (hsst3) expressed in CHO-K1 cells.; type: cell-based; details: cho-k1
Sequence (P32745 whole entry): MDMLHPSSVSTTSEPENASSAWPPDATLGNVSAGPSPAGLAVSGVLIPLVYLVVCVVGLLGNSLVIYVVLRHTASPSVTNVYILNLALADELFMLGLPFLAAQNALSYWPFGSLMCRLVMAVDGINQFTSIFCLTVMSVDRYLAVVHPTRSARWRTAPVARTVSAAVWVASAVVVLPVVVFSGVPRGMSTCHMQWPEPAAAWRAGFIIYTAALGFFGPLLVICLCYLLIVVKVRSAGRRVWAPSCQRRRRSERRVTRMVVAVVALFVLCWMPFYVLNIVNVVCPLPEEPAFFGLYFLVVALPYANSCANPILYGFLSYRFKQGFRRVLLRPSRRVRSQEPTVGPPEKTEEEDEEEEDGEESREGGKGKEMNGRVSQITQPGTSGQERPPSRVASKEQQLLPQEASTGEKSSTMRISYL
pKi: −log10 of the molar value.

Smiles Entry: C[C@@H](O)[C@@H]1NC(=O)[C@H](CCCCN)NC(=O)[C@@H](Cc2c[nH]c3ccccc23)NC(=O)[C@H](Cc2ccccc2)NC(=O)CN([C@@H](C)c2ccccc2)C(=O)[C@H](Cc2ccccc2)NC1=O
pKi: 6.10
--
Smiles Entry: C[C@@H](O)[C@@H]1NC(=O)[C@H](CCCCN)NC(=O)[C@@H](Cc2c[nH]c3ccccc23)NC(=O)[C@H](Cc2ccccc2)NC(=O)CN(Cc2ccccc2)C(=O)[C@H](Cc2ccccc2)NC1=O
pKi: 6.60
--
Smiles Entry: C[C@H](c1ccccc1)N1CC(=O)N[C@@H](Cc2ccccc2)C(=O)N[C@H](Cc2c[nH]c3ccccc23)C(=O)N[C@@H](CCCCN)C(=O)N[C@@H]([C@@H](C)O)C(=O)N[C@@H](Cc2ccccc2)C1=O
pKi: 6.37
